assay-summary: amyloid nucleation score (Sup35N fusion, yeast selection) (log enrichment); library NNK2; higher = more nucleation; inactive = no reads after selection;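 note: zero at mode of non-aggregating sequences after 7 days selection at 30°C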
Hi there, I'd appreciate the recorded amyloid nucleation score for every entry that follows.
Would you mind answering with just the numeric figure?

q: Look up amyloid nucleation score for this substance: `EIFAGICSSLAFKGHGRKSG`
a: 6.29

q: Next entry: `AVMAISMRS`
a: 0.514

q: Likewise for `GYAVRRYDLMNLFRSMWASC` ?
a: -0.739

q: One more substance: `FPTFVAMW`
a: 0.35

q: Entry to check: `SYIICELNQLLGFKNWHKTC`
a: 2.83

q: Item: `YFLLVGAARIRRVKLLQ`
a: -0.22

q: Follow-up entry: `AEAISQLEAMR`
a: 1.13

q: Try this substance next: `KHEIQVS`
a: 0.33

q: Record: `LIGIARSRVYRVKECFVHGL`
a: 0.519

q: Repeat with `VIKMSVNNVELVGMDHYSCV`
a: 0.606

q: Would you kindly repeat that for `MDLVCVAKSDVQACTYSAPV` ?
a: 1.1

q: What do you get for `TWRYHFADVGSILDLVG` ?
a: -0.277

q: Quick one: `YLNLYLYCVNSSNDSYV`
a: 6.51

q: Field entry: `TFVKGKMFNLTRVWVLPYWT`
a: 0.318

q: Consider next the substance `SSSDFEFSHVIKGAIFRLFT` in the same way.
a: -1.2

q: Record: `CGARRGCDSWTSSTAGKSVG`
a: 1.16

q: Same again, this time with `HCLGVFARFWIWVGPDGLVI`
a: -1.2

====

assay-summary: amyloid nucleation score (Sup35N fusion, yeast selection) (log enrichment); library NNK1; higher = more nucleation; inactive = no reads after selection
So I've got a bunch of substances here, and I need their amyloid nucleation score values.
Format: numeric value only, no unit, no commentary.

q: Look up amyloid nucleation score: `YSRMQVAIYMYLVE`
a: 3.19

q: Another substance: `NLSLRLFVSLSLIMTVMRVP`
a: -0.127

q: Lookup `VPFSGSDNGGTYDCLDWNEG`
a: -0.299

q: What do you get for `VMWSVDFWYPAMSGVIPDQF` ?
a: 1.45

q: Okay, and `VVGRTEEEHLQHPSWCMCAL` ?
a: 0.128

q: Moving on to `RSGTPQSERDGGGFTEVKKT`
a: -0.205

q: Would you kindly repeat that for `CFRYVCIILMSVLMNYNFVY` ?
a: -0.05

q: Param item: `VGFGPVWTRPYNTWYNYGKS`
a: 0.514

q: And then `HGGRDVCDKGVSSRGHRW` , what is it?
a: 0.276

q: Queued: `ALMDKDLCLNMSGQKSLWFR`
a: 0.073

q: Then what about the substance `FIISRD` ?
a: -0.028

q: Would you kindly repeat that for `KFFEFLYKFDPCRRYCRLCQ` ?
a: 0.264

q: Moving on to `DSVYRLFICIVISALTGWWK`
a: 0.258

q: Next record, please: `RSVMCGWDHPRDRVGAPEWL`
a: 0.439

q: Same lookup for `FACYLNHAGGVSAHKYIFVT` , please.
a: 0.351

====

assay-summary: amyloid nucleation score (Sup35N fusion, yeast selection) (log enrichment); library NNK2; higher = more nucleation; inactive = no reads after selection
So I've got a bunch of substances here, and I need their amyloid nucleation score values.
Form: value (number only, do not type unit).

q: Consider the substance shown here: `GRESKVWIPFTGALF` What is its recorded amyloid nucleation score?
a: -1.04

q: Next substance: `STDAILAGKFCSGH`
a: -0.943

q: // query: `PIRVSSSVVSWYYFGNSRIW`
a: -1.09

q: # iterate: `FKGSWHAFECEAYEYAWV`
a: -0.018

q: One more substance: `QNKSIDSHAVGGIRVDDYRR`
a: -0.088

q: Now consider `SIKCEFELIDLTSQAPCEGQ` and answer again.
a: 0.611

q: // next record `AIWSVLYGGRYTMPHSIFGA`
a: 0.448

q: Would you mind doing `ISCHLFLLALYGWNKCVCSV` as well?
a: 0.114

q: Another substance to look at: `VSSYCIRML`
a: 0.11

q: Same thing, different substance: `TCLVCVTEVAHDSHLNRVSH`
a: 7.08

q: Moving on to the next substance: `CVFASNKRMEGVDKKLRVRN`
a: 0.403

q: Another: `HNVVRGFCLVFTIYHSGRTR`
a: 5.1

q: What do we get for `AFLNFTDRKSQWKVMVIEFL` ?
a: 3.3

q: And for `STMWTIGSWLKAGALSFGFL` ?
a: -0.441

q: `VVRKGCL` , same question.
a: -0.86

q: Also need `APSLIYFNVST` , thanks.
a: 3.75

q: Then `VKDDTSHPYRGFYYRVIRRN` ?
a: 1.08

====

assay-summary: amyloid nucleation score (Sup35N fusion, yeast selection) (log enrichment); library NNK2; higher = more nucleation; inactive = no reads after selection
value-kind: amyloid nucleation score
Keep the answer to the number alone.

q: Looking for the measured amyloid nucleation score of `LGVFWIDWPLLLGFRSRTGV` , can you help?
a: -0.393

q: Note, next up: `RRVNFMKVTFNLKVILFRWS`
a: -1.52

q: Do the same for `MMGRTTWMDIKIYWENQCAE` please
a: -0.176

q: Then `ESTLRVMGRKAISSGLMCIA` ?
a: 0.269

q: Param item: `FGMRTGWREGGESCSTHERG`
a: 1.14

q: Field entry: `IYAGSSLTLWGDRDNKKCDR`
a: -1.44

q: Try the sequence `SGMISRRHAYGAEVELVGSN`
a: 1.17

q: And the next one, `AVCVENLCPWV` ?
a: 1.82

q: Do the same for `MYEGGSTLW` please
a: -0.441

q: And for `VWKNPYIGVHLLHDLKS` ?
a: -0.391

q: Could you do the same for `VLSYRVHLEPARCFSGGYCY` , please?
a: 0.512

q: Thanks! And `HNVGILWSSCCSRMYIAYAY` ?
a: -0.288

q: Same for `ECNTSVLSTWARDLVSPVLT`
a: 4.3

q: Would you kindly repeat that for `SNVLFLVLHRGRVKAVSRNE` ?
a: -0.783

q: Cool, now `LCYWCTCR`
a: 0.141

====

assay-summary: amyloid nucleation score (Sup35N fusion, yeast selection) (log enrichment); library NNK2; higher = more nucleation; inactive = no reads after selection
Please mark satisfied if the recorded amyloid nucleation score is equal to or greater than 0.4, and not satisfied if it falls below.

q: Can `FISSADLVTNMPRI` be said to have amyloid nucleation score at or above 0.4?
a: not satisfied

q: Could you do the same for `SFDFLSLLSDRCLVLDVSPN` , please?
a: satisfied

q: Now the same for `CLGSLHNVLQALAMTEPSNY`
a: not satisfied

q: Another: `TIIRDFSWLHLGFPRACIIT`
a: not satisfied

q: `LHVMYQTAMRAFAWNVTDLG` ?
a: not satisfied

q: Record: `NYTNVRERGYMRVEYDMSIT`
a: not satisfied

q: Queued: `LEGFTRA`
a: not satisfied

q: Another substance to look at: `RKCSLVAEWTGLLLNSFVHN`
a: satisfied

q: Also `YFELKLKNARVGRFIDWRAT` , if possible.
a: satisfied

q: Same again, this time with `ISPEYVSTALLTECTWRVLR`
a: not satisfied

q: Another substance to look at: `YMTPVLDSHSFADVSAIRCV`
a: not satisfied

q: Thanks! And `DNFYCHHVDLFSWMIRADLA` ?
a: not satisfied

q: Try this substance next: `HTSMWFL`
a: not satisfied

q: Let us now turn to `FEGLWQTFTMSLQGNLKYIF`
a: not satisfied

q: Now this one: `LMLRGLEEARAPRCESWPSW`
a: satisfied

q: Moving on to the next substance: `CILRGLVASSNNSGSIGAMK`
a: not satisfied

q: Now give it for `WCGYMNSSIKSRYSTYTFRS` too.
a: satisfied

q: `FGNGDKSGMIGINVNLLCRM` , same question.
a: satisfied

q: // next record `VARRGALNVRHFFPGKREV`
a: satisfied

q: Entry `SCWRRMSSITPG` please
a: satisfied

q: What about this substance? `YPEPKQWVSVSALHLVRGLR`
a: satisfied

q: Proceed to `LRGLVMRCAFIVKGLGLCEG`
a: satisfied

q: Also, `VNDLLTPCGIHLQPVWDYES` please.
a: not satisfied

q: Moving on to `LSLKVKYFQKDTRVGNGEHK`
a: satisfied

q: Thanks! And `SSSVDRTVHPLCYGFSLRRD` ?
a: not satisfied

q: Now consider `VVEGGRFLVDSRWKVVSRGC` and answer again.
a: not satisfied

q: Entry to check: `IVSCFTRVN`
a: satisfied

q: Next entry: `ELWRYDINIERYKSTRSVYH`
a: satisfied

q: Repeat for the following substance: `AELLYMFWACNFSWSMPL`
a: not satisfied
